meta.source: patent US20180051081A1

experimental.target: T1, dog CD47 (dog, UniProt A0A8I3PM61 19-310)
T1 construct: also called CD47 on dog RBCs
T1 sequence: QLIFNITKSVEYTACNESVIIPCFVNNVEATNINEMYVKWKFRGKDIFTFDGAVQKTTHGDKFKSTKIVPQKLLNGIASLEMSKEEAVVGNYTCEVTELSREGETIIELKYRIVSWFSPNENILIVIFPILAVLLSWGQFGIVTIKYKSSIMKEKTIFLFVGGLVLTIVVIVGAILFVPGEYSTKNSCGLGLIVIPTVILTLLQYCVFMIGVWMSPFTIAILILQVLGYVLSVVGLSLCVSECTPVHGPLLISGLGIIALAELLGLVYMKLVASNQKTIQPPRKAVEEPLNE
procedure.details: FACS, dog RBCs, supernatant 10 ng/ml
Entries and their mean fluorescence relative to chimera
Please give the numeric answer without any surrounding text.

* Clone 21 (pVxK7b-037-hum21-LC / pVxK7b-037-hum21-HC) (antibody, human IgG1, kappa, V domains shown) VH: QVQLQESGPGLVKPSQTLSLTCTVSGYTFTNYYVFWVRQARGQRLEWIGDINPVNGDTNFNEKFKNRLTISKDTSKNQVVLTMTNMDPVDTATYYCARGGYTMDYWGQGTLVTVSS VL: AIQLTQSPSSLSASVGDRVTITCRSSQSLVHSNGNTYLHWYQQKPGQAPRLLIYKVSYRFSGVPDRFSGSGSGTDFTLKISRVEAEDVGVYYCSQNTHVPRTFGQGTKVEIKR | 1.1

Read the next record carefully.
Recorded mean fluorescence relative to chimera of Clone 18 (pVxK7b-037-hum18-LC / pVxK7b-037-hum18-HC) (antibody, human IgG1, kappa, V domains shown) VH: EVQLVQSGAEVKKPGESLRISCKGSGYTFTNYYVFWIRQSPSRGLEWLGDINPVNGDTNFNEKFKNRVTITADKSTSTAYMELSSLRSEDTAVYYCARGGYTMDYWGQGTLVTVSS VL: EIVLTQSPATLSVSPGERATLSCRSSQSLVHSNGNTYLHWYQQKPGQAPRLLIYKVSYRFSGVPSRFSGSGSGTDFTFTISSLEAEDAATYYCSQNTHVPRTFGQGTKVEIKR , please.
1.5
